Origin of measurements: patent US10898465B2

# Protocol description: Oral pharmacokinetic study in mice, plasma LC-MS/MS
# Format: in vivo
# Condition description: mouse, 10 mg/kg, 10 mpk, female Balb C mice, read-out: Elimination t½ (converted)
# Procedure: Female Balb C mice 4 per group after overnight fasting were dosed orally (via gavage) with compound 1 in 5% NMP in normal saline (10 ml/kg). Blood was collected by serial bleeding at 0.16 hr, 0.5 hr, 1 hr, 2 hr, 4 hr, 6 hr, 8 hr in heparinized tubes. […] Acetonitrile and plasma calibration curves were generated and percentage of drug recovery from plasma determined. Quantitative analysis was done by liquid chromatography tandem mass spectrometer (API3200 LC-MS/MS). […]

>  <Molecule>
CCCCCCCC(=O)Oc1cc(O)cc2c1C[C@H](O)[C@H](c1ccc(O)c(O)c1)O2 [Compound 1001]

>  <half-life (h)>
4.5

$$$$
